- assay system: T1, human PrRP receptor GPR10 (human, UniProt P49683 1-370)
- T1 construct: whole, on cells; also called GPR10 human receptor transfected in CHO cells; human GPR10 receptor
- T1 sequence (looked up): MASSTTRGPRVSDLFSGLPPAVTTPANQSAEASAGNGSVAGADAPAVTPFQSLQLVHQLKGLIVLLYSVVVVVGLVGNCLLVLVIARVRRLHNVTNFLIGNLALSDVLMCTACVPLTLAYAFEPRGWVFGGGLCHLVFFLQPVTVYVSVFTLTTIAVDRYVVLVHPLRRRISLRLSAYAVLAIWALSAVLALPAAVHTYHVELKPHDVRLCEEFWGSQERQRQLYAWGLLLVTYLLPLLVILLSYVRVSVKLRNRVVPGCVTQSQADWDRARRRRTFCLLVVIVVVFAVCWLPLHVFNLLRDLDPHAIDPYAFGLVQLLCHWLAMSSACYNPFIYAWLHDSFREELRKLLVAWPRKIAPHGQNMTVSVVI
- experimental protocol: competition with 125I-human PrRP31, CHO cells with human GPR10
Numbered stars: 1 amine (or outer) side, 2 acyl side, 3 side chain; on linkers, the order of the positions; unused ones are H or OH. Square brackets hold non-standard residues; d marks the D form. Side chains are listed from the residue outwards. Ends that are not written are not given here. * marks the point of attachment. γGlu = O=C(O)[C@H](CCC(=O)[*:2])N[*:1]; Palmitoyl = CCCCCCCCCCCCCCCC(=O)*; Myristoyl = CCCCCCCCCCCCCC(=O)*; PheCl2 = dichlorophenylalanine; Nle = CCCC[C@H](N)C(=O)O; Octanoyl = CCCCCCCC(=O)*; GABA = NCCCC(=O)O
Classification by % of PrRP31 | ranges: low interval: < 60%; middle interval: ≥ 60% and < 200%; high interval: ≥ 200%

QHSMETRTPDINPAWYTGRGIRPVGRF-NH2 (shortened PrRP31 analog; also called 37 short) [analog no. 37] = middle interval
Palmitoyl-SRTHRHSMEIRTPDINPAWYASRGIRPVGRF-NH2 (also called analog no; 43; compound 43) [palm-PrRP31 (analog 43)] = middle interval
Myristoyl-SRAHQHS[Nle]ETRTPDINPAWYTGRGIRPVGR[PheCl2]-NH2 [analog no. 14] = high interval

Determine which band this binder sits in: SRAHQHS[Nle]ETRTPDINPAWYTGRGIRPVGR[PheCl2]-NH2 [analog no. 13]
middle interval

Now this one: SRTHRHSMEIK([GABA-Palmitoyl])TPDINPAWYASRGIRPVGRF-NH2 [analog no. 53]
low interval

Now this one: SETHRHSMEIK([γGlu-Palmitoyl])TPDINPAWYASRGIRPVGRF-NH2 [analog no. 55]
middle interval

Now this one: SETHRHSMEIKTPDINPAWYASRGIRPVGRF (K(N-POE(N-palm)) at residue 11; C-terminal amide) [analog no. 58]
middle interval

Now this one: TPDINPAWYTGRGARPFGRF-NH2 [analog no. 31]
low interval

Now this one: SRTHRHSMEIKTPDINPAWYASRGIRPVGRF ((N-palm(N-POE)) at the N-terminus; K(N-palm(N-POE)) at residue 11; C-terminal amide) [analog no. 59]
low interval

Now this one: Octanoyl-SRAHQHS[Nle]ETRTPDINPAWYTGRGIRPVGRF-NH2 [analog no. 4]
high interval
